# Assay notes: Acute toxicity in sc dosed mouse
# Type: organism-based
# Reported conditions: in vivo
Endpoint: LD50

The cases that follow already have their LD50 on record.
>>> experimental_value("CCN1C2CCCC(c3cccc(O)c3)(C2)C1C.Cl (racemic)")
"> 30 mg/kg"
>>> experimental_value("Cl.Oc1cccc(C23CCCC(C2)N(CC2CCC2)C3)c1 (racemic)")
"> 30 mg/kg"
>>> experimental_value("Br.CCC1N(C)C2CCCC1(c1cccc(O)c1)C2 (racemic)")
"59.8 mg/kg"
>>> experimental_value("Br.CC(C)=CCN1C2CCCC(c3cccc(O)c3)(C2)C1C (racemic)")
"> 30 mg/kg"
>>> experimental_value("CCCN1C2CCCC(c3cccc(O)c3)(C2)C1C.Cl (racemic)")
"> 30 mg/kg"
>>> experimental_value("CCCCCCN1CC2(c3cccc(O)c3)CCCC1C2.Cl (racemic)")
"> 100 mg/kg"

Each compound below has a recorded value; state its LD50.
1. Br.CC1N(C)C2CCCC1(c1cccc(OC(=O)c3cccnc3)c1)C2 (racemic)
2. COc1cccc(C23CCCC(C2)N(CCCC(=O)c2ccc(F)cc2)C3)c1.Cl (racemic)
3. CCCCCCN1C2CCCC(c3cccc(O)c3)(C2)C1C.Cl (racemic)
4. Br.CC1N(C)C2CCCC1(c1cc(O)cc(O)c1)C2 (racemic)
5. Cl.Oc1cccc(C23CCCC(C2)N(CC2CC2)C3)c1 (racemic)
6. O=C(O)C(=O)O.c1ccc(CCN2CC3(c4ccccc4)CCCC2C3)cc1 (racemic)
7. CC1C2CCCC1(c1cccc(O)c1)CN2C (racemic; 13)
8. CC(C)=CCN1CCC2(C)c3cc(O)ccc3CC1C2C.Cl (stereo not given) [PENTAZOCINE HYDROCHLORIDE]

output:
1. 184 mg/kg
2. > 225 mg/kg
3. 25.4 mg/kg
4. > 100 mg/kg
5. > 100 mg/kg
6. > 100 mg/kg
7. > 30 mg/kg
8. 190 mg/kg

input: Supply recorded LD50 for CC(=O)Oc1cccc(C23CCCC(C2)N(C)C3C)c1.Cl (racemic) here.
output: 123 mg/kg
